biological target: HDAC3-NcoR2 (Homo sapiens, UniProt O15379); construct: purified recombinant human full length HDAC1 (cat# 50051), HDAC2 (cat# 50052), HDAC3-NcoR2 (cat# 50003); purchased BPS Bioscience (San Diego, CA) 50003; test: Two-step fluorogenic deacetylase assay, recombinant HDAC3; type: biochemical; conditions: no enzyme pre-incubation; applied immediately after preparing in aqueous buffer
Sequence (O15379 whole entry): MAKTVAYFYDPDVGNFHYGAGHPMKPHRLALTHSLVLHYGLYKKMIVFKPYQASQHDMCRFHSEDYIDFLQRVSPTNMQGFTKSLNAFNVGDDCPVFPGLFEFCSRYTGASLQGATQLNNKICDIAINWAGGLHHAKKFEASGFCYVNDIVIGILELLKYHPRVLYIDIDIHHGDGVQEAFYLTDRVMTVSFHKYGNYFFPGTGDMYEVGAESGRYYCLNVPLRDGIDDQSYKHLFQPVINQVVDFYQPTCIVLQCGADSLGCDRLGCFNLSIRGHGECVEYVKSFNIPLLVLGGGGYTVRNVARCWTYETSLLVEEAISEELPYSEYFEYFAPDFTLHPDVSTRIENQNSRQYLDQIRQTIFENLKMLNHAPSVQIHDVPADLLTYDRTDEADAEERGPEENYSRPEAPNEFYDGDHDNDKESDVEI
Sequence (Q9Y618 395-489 partner limits assumed): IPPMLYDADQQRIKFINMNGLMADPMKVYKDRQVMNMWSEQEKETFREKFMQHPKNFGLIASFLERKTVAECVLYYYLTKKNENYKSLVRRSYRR

>  <compound>
Nc1ccccc1NC(=O)CCCCCC(=O)Nc1ccccc1 [Compound 4b]

>  <IC50 (µM)>
0.97

$$$$

---

Assay: Pharmacokinetics after a single SC or PO dose
Assay type: in vivo, mouse
Details: C57BL/6NCRL, mouse, plasma, 50 mg/kg; mice; po 50 mg eq/kg
Protocol: The pharmacokinetic parameters of 4b following dosing with either 5 mg/kg subcutaneous (sc) injection using the soluble formulation, or 4b per oral (po) by gavage (50 mg/kg in suspension) in mice plasma and whole brain homogenate are shown in Fig. 4 and Table 1. Triplicate dose formulation samples were retained and analyzed to ensure an accurate concentration of 4b was injected. The sc dose was calculated to be on average 84.3% of the 5 mg/kg target dose. […]

>  <compound.structure>
Nc1ccccc1NC(=O)CCCCCC(=O)Nc1ccccc1

>  <unit>
µM·h

>  <AUC>
1.08

$$$$

---

assay: Hepatic microsomal stability; assay type: in vitro ADME, mouse; conditions: mouse, pooled hepatic microsomes, pH 7.4, mouse; without NADPH; read-out: in vitro half-life in liver microsomes

>  <compound.structure>
O=C(CCCCCc1nc2ccccc2[nH]1)Nc1ccccc1

>  <half-life at 1 µM / min>
7

$$$$

---

assay: Simulated gastric fluid stability; assay type: in vitro ADME; conditions: simulated gastric fluid (SGF), pH 1.2
property: half-life at 10 µM

>  <compound.structure>
Nc1ccccc1NC(=O)CCCCCC(=O)Nc1ccccc1

>  <property>
half-life at 10 µM

>  <result>
> 600 min

$$$$

---

biological target: CCK1 (CCKA) (h) (Homo sapiens)
Sequence (P32238 whole entry): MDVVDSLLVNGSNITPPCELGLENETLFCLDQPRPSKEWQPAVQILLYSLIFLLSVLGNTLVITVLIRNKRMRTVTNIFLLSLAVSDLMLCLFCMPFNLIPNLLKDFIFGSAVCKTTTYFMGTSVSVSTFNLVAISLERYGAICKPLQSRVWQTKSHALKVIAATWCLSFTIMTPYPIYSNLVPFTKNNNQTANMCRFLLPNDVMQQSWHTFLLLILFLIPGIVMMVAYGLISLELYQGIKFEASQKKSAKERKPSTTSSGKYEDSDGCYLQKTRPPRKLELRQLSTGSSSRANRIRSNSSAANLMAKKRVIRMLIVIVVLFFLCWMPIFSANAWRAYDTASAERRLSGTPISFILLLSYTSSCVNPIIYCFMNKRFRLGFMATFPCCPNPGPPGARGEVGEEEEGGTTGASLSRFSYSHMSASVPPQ

>  <compound>
Nc1ccccc1NC(=O)CCCCCC(=O)Nc1ccccc1 [Compound 4b]

>  <unit>
µM

>  <Ki>
8.6

$$$$

---

assay: Pharmacokinetics after a single SC or PO dose; type: in vivo, mouse; conditions: C57BL/6NCRL, mouse, 4.22 mg/kg; mice; SC 4.22 mg eq./kg; plasma; read-out: T1/2 (converted)
property: half-life (min)

>  <compound>
Nc1ccccc1NC(=O)CCCCCC(=O)Nc1ccccc1 [Compound 4b]

>  <property>
half-life

>  <quantitative.result>
39.6

$$$$

---

experiment: Pharmacokinetics after a single SC or PO dose; type: in vivo, mouse; details: C57BL/6NCRL, mouse, brain/plasma; po 50 mg eq./kg; 1 hr; mean (standard deviation), N = 3; read-out: B:P

>  <compound.structure>
Nc1ccccc1NC(=O)CCCCCC(=O)Nc1ccccc1

>  <Kp at 1 hr>
0.08

$$$$

---

system: P-glycoprotein (Pgp, MDR1); test: Effective efflux ratio in MDR1-MDCK cells; type: in vitro ADME; details: human, pH 7.4; MDCK overexpressing MDR1

>  <compound.structure>
Nc1ccccc1NC(=O)CCCCCC(=O)Nc1ccccc1

>  <efflux ratio at 1 h, 10 µM>
4.9

$$$$

---

assay: Hepatic microsomal stability; assay type: in vitro ADME, mouse; conditions: mouse, pooled hepatic microsomes, pH 7.4, mouse; 1 µM; with NADPH; read-out: in vitro half-life in hepatic microsomes
property: half-life at 1 µM

>  <compound.structure>
O=C(CCCCCc1nc2ccccc2[nH]1)Nc1ccccc1

>  <property>
half-life at 1 µM

>  <result>
< 5 min

$$$$
>  <compound.structure>
Nc1ccccc1NC(=O)CCCCCC(=O)Nc1ccccc1

>  <property>
half-life at 1 µM

>  <result>
~20 min

$$$$
